experimentalTarget: MAP kinase p38 (Mus musculus) (UniProt P47811+O08911+Q9WUI1+Q9Z1B7)
procedureText: Induction of phosphorylation of p38 in mouse BMDM cells at 50 uM after 90 mins by Western blot analysis
Assay type: cell-based
Active and inactive are the calls of the source. The rule behind the calls is not given here.
Classes used: active, inactive

smilesText: C#CCCCCC(=O)CC(=O)N[C@H]1CCOC1=O
classification: inactive

smilesText: [N-]=[N+]=NCCCCCCCCCC(=O)CC(=O)N[C@@H]1CCOC1=O
classification: inactive

smilesText: [N-]=[N+]=NCCCCCCCCCC(=O)CC(=O)N[C@H]1CCOC1=O
classification: active

smilesText: CCCCCCCCCC(=O)CC(=O)N[C@H]1CCOC1=O
classification: active

smilesText: C#CCCCCCCCCC(=O)CC(=O)N[C@H]1CCOC1=O
classification: active

* * *

Test system: Pseudomonas aeruginosa
procedureText: Induction of quorum sensing activity in lasI/rhlI-deleted Pseudomonas aeruginosa PAO-JP2 expressing plasmid pKD201 containing a LasI reporter coupled to the luxCDABE assessed as relative luminescence units normalized with respect to cell viability at 1 uM after 4 hrs by autoinducer activity assay
The source made the active and inactive calls. The calls are words filed in the database; no cut-off is given here.

smilesText: CCCCCCCCCC(=O)CC(=O)N[C@H]1CCOC1=O
Activity: Active

smilesText: C#CCCCCC(=O)CC(=O)N[C@H]1CCOC1=O
Activity: inactive

smilesText: [N-]=[N+]=NCCCCCCCCCC(=O)CC(=O)N[C@H]1CCOC1=O
Activity: inactive

smilesText: C#CCCCCCCCCC(=O)CC(=O)N[C@H]1CCOC1=O
Activity: Active

smilesText: [N-]=[N+]=NCCCCCCCCCC(=O)CC(=O)N[C@@H]1CCOC1=O
Activity: inactive

* * *

experimentalTarget: Eukaryotic translation initiation factor 2 subunit 1 (Mus musculus)
procedureText: Induction of phosphorylation of eIF2alpha in mouse BMDM cells at 50 uM after 90 mins by Western blot analysis
Format: cell-based
The source made the active and inactive calls. No cut-off for these calls is given here.
Outcomes: active, inactive

smilesText: [N-]=[N+]=NCCCCCCCCCC(=O)CC(=O)N[C@H]1CCOC1=O
experimentalTarget: Eukaryotic translation initiation factor 2 subunit 1 (Mus musculus)
classification: active
//
smilesText: [N-]=[N+]=NCCCCCCCCCC(=O)CC(=O)N[C@@H]1CCOC1=O
experimentalTarget: Eukaryotic translation initiation factor 2 subunit 1 (Mus musculus)
classification: inactive
//
smilesText: C#CCCCCC(=O)CC(=O)N[C@H]1CCOC1=O
experimentalTarget: Eukaryotic translation initiation factor 2 subunit 1 (Mus musculus)
classification: inactive
//
smilesText: CCCCCCCCCC(=O)CC(=O)N[C@H]1CCOC1=O
experimentalTarget: Eukaryotic translation initiation factor 2 subunit 1 (Mus musculus)
classification: active
//
smilesText: C#CCCCCCCCCC(=O)CC(=O)N[C@H]1CCOC1=O
experimentalTarget: Eukaryotic translation initiation factor 2 subunit 1 (Mus musculus)
classification: active
